Assay: Elimination half life in BALB/c mouse at 1 mg/kg, iv by LC-MS/MS analysis
Type: ADME, organism-based
Details: in vivo, read-out: beta t1/2 (converted)

smilesRepr: CN1CC[C@H](c2c(O)cc(O)c3c(=O)cc(/C=C/c4c(Cl)cccc4Cl)oc23)[C@H](O)C1
unitTag: h
half-life: 5.46

* * *

Test: Toxicity in po dosed Swiss albino mouse allografted with Swiss mouse EAC administered for 9 day
Assay type: organism-based
Details: in vivo
assayEndpoint: MTD at 216 h (mg/kg)

smilesRepr: CN1CC[C@H](c2c(O)cc(O)c3c(=O)cc(/C=C/c4c(Cl)cccc4Cl)oc23)[C@H](O)C1
measuredNumber: 100

* * *

Assay: AUC in BALB/c mouse at 30 mg/kg, po by LC-MS/MS analysis
Assay type: ADME, organism-based
Settings: in vivo

smilesRepr: CN1CC[C@H](c2c(O)cc(O)c3c(=O)cc(/C=C/c4c(Cl)cccc4Cl)oc23)[C@H](O)C1
unitTag: µM·h
AUC: 11.3

* * *

Assay: Intrinsic clearance in dog hepatocytes assessed per million cells at 3 uM after 180 mins by LC-MS/MS analysis
Assay type: ADME, cell-based, Canis lupus familiaris, Hepatocyte
Conditions: read-out: CLH
assayEndpoint: hepatocyte CLint at 3 µM (µL/min/1e6 cells)

smilesRepr: CN1CC[C@H](c2c(O)cc(O)c3c(=O)cc(/C=C/c4c(Cl)cccc4Cl)oc23)[C@H](O)C1
assayEndpoint: hepatocyte CLint at 3 µM
measuredNumber: 12.3

* * *

Molecular target: Cytochrome P450 2D6 (Homo sapiens, UniProt P10635)
Sequence (P10635 whole entry): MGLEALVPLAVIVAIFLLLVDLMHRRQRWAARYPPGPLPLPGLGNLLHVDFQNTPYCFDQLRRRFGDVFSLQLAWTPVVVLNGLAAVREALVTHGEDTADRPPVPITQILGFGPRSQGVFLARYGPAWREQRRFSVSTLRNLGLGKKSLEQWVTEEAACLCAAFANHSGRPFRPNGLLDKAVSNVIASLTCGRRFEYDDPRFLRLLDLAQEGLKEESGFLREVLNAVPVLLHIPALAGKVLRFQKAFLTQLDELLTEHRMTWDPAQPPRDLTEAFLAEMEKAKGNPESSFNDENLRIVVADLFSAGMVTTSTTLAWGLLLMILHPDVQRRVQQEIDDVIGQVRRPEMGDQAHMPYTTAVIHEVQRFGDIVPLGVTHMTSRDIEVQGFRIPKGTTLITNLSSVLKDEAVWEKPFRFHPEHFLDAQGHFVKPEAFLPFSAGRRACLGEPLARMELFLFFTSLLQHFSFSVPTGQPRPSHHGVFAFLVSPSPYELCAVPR
Assay: Inhibition of human CYP2D6 using fluorogenic substrate preincubated with co-factor for 10 mins followed by enzyme-substrate addition by fluorometric method
Format: ADME
assayEndpoint: IC50

smilesRepr: CN1CC[C@H](c2c(O)cc(O)c3c(=O)cc(/C=C/c4c(Cl)cccc4Cl)oc23)[C@H](O)C1
result: > 20 µM

* * *

Experiment: Pancreas to plasma partition coefficient, Kp of the compound in BALB/c mouse at 30 mg/kg, po measured at 1 hr
Type: ADME, organism-based
Settings: pancreas and plasma

smilesRepr: CN1CC[C@H](c2c(O)cc(O)c3c(=O)cc(/C=C/c4c(Cl)cccc4Cl)oc23)[C@H](O)C1
Kp at 1 h: 24.4

* * *

Experiment: Tmax in BALB/c mouse at 3 mg/kg, po by LC-MS/MS analysis
Type: ADME, organism-based
Conditions: in vivo
assayEndpoint: Tmax

smilesRepr: CN1CC[C@H](c2c(O)cc(O)c3c(=O)cc(/C=C/c4c(Cl)cccc4Cl)oc23)[C@H](O)C1
result: 22.2 min

* * *

Experiment: Intrinsic clearance in mouse hepatocytes assessed per million cells at 3 uM after 180 mins by LC-MS/MS analysis
Type: ADME, cell-based, Hepatocyte
Conditions: read-out: CLH

smilesRepr: CN1CC[C@H](c2c(O)cc(O)c3c(=O)cc(/C=C/c4c(Cl)cccc4Cl)oc23)[C@H](O)C1
hepatocyte CLint at 3 µM / µL/min/1e6 cells: 14.9

* * *

Biological target: CDK2/Cyclin A2 (Homo sapiens) (UniProt P24941+P20248)
Test: Inhibition of CDK2/cyclin A (unknown origin) at 0.5 uM using histone H1 as substrate after 30 mins in presence of [33P]-gamma-ATP by filter binding assay relative to control
Format: protein-complex assay
# key: entry, value: inhibition

molecule: CCN(CC)Cc1c(O)c([C@H]2CCN(C)C[C@H]2O)c2oc(C)cc(=O)c2c1O
inhibition / %: 0
--
molecule: CCOC(=O)N1CCN(Cc2c(O)c([C@H]3CCN(C)C[C@H]3O)c3oc(C)cc(=O)c3c2O)CC1
inhibition / %: 5
--
molecule: Cc1cc(=O)c2c(O)cc(OCc3ccco3)c([C@H]3CCN(C)C[C@H]3O)c2o1
inhibition / %: 7
--
molecule: Cc1cc(=O)c2c(O)c(CN3CCCC3CO)c(O)c([C@H]3CCN(C)C[C@H]3O)c2o1 (some centres undefined)
inhibition / %: 0

* * *

Target: Cytochrome P450 2C9 (Homo sapiens, UniProt P11712)
Sequence (P11712 whole entry): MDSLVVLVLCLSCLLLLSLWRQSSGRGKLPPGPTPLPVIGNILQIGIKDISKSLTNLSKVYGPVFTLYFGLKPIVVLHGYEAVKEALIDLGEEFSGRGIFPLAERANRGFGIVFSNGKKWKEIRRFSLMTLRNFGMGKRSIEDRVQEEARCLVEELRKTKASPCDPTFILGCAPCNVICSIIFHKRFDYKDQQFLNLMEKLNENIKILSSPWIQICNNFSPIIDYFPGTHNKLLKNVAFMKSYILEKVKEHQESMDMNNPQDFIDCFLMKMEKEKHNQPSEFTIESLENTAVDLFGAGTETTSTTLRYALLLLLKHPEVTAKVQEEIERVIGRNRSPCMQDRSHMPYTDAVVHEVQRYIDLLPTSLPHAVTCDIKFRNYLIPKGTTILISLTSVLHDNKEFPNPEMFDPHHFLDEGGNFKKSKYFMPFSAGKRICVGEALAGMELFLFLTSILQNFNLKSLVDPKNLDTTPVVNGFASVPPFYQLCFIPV

smilesRepr: CN1CC[C@H](c2c(O)cc(O)c3c(=O)cc(/C=C/c4c(Cl)cccc4Cl)oc23)[C@H](O)C1
IC50: > 20 µM

* * *

Target: CDK9/Cyclin K (Homo sapiens)
Sequence (P50750 whole entry): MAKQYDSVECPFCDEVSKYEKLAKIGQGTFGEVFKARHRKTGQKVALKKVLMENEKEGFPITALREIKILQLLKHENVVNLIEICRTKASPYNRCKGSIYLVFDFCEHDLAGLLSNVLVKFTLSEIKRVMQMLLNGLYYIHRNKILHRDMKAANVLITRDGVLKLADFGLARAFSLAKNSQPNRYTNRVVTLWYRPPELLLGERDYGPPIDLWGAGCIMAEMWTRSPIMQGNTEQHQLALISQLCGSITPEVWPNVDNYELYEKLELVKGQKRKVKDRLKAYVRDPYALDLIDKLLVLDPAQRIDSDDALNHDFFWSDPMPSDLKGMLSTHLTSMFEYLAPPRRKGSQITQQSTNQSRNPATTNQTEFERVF
Sequence (O75909 whole entry, further chain): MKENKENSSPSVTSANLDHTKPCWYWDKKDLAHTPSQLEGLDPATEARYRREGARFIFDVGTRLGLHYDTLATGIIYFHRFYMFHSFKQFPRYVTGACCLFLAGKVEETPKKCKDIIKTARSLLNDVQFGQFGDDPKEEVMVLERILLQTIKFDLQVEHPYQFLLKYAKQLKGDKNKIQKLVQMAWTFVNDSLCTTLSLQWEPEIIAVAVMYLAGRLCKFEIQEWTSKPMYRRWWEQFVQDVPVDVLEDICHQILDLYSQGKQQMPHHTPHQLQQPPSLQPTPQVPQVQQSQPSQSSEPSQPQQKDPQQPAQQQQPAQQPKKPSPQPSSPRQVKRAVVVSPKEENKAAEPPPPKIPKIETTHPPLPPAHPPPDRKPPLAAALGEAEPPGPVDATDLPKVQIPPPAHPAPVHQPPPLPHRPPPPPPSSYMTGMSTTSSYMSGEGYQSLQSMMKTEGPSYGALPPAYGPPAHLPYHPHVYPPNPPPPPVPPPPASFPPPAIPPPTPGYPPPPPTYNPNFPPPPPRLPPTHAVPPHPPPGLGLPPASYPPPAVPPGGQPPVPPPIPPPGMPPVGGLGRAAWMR
Experiment: Inhibition of CDK9/cyclin K (unknown origin) after 30 mins in presence of [33P]-gamma-ATP by filter binding assay

smilesRepr: CN1CC[C@H](c2c(O)cc(O)c3c(=O)cc(/C=C/c4c(Cl)cccc4Cl)oc23)[C@H](O)C1
IC50, nM: 412

* * *

Experiment: AUC in Sprague-Dawley rat at 10 mg/kg, po by LC-MS/MS analysis
Format: ADME, organism-based
Conditions: in vivo

smilesRepr: CN1CC[C@H](c2c(O)cc(O)c3c(=O)cc(/C=C/c4c(Cl)cccc4Cl)oc23)[C@H](O)C1
unitTag: µM·h
AUC: 5.68

* * *

Assay: Chemical stability of compound in SGF at pH 1.2 assessed as parent compound remaining after 8 hrs by HPLC method
Type: physicochemical
Settings: read-out: Stability

smilesRepr: CN1CC[C@H](c2c(O)cc(O)c3c(=O)cc(/C=C/c4c(Cl)cccc4Cl)oc23)[C@H](O)C1
unitTag: %
remaining at 8 h: 100

* * *

Experiment: Tmax in BALB/c mouse at 30 mg/kg, po by LC-MS/MS analysis
Format: ADME, organism-based
Conditions: in vivo

smilesRepr: CN1CC[C@H](c2c(O)cc(O)c3c(=O)cc(/C=C/c4c(Cl)cccc4Cl)oc23)[C@H](O)C1
Tmax: 32.4 min

* * *

Assay: Tmax in Sprague-Dawley rat at 3 mg/kg, po by LC-MS/MS analysis
Assay type: ADME, organism-based
Settings: in vivo
assayEndpoint: Tmax (min)

smilesRepr: CN1CC[C@H](c2c(O)cc(O)c3c(=O)cc(/C=C/c4c(Cl)cccc4Cl)oc23)[C@H](O)C1
measuredNumber: 30

* * *

Assay: Tmax in Sprague-Dawley rat at 30 mg/kg, po by LC-MS/MS analysis
Format: ADME, organism-based
Conditions: in vivo

smilesRepr: CN1CC[C@H](c2c(O)cc(O)c3c(=O)cc(/C=C/c4c(Cl)cccc4Cl)oc23)[C@H](O)C1
unitTag: h
Tmax: 1

* * *

Experiment: Half life in mouse liver microsomes at 100 uM after 30 mins by LC-MS/MS analysis
Assay type: ADME, microsome
assayEndpoint: half-life at 100 µM

smilesRepr: CN1CC[C@H](c2c(O)cc(O)c3c(=O)cc(/C=C/c4c(Cl)cccc4Cl)oc23)[C@H](O)C1
assayEndpoint: half-life at 100 µM
result: > 30 min

* * *

Experiment: Protein binding in rat plasma at 3 uM after 5 hrs by equilibrium dialysis method
Assay type: ADME, cell-free
Settings: read-out: PPB (converted)

smilesRepr: CN1CC[C@H](c2c(O)cc(O)c3c(=O)cc(/C=C/c4c(Cl)cccc4Cl)oc23)[C@H](O)C1
fraction unbound at 5 h, 3 µM: 0.046

* * *

Test: Half life in Sprague-Dawley rat at 30 mg/kg, po by LC-MS/MS analysis
Type: ADME, organism-based
Settings: in vivo

smilesRepr: CN1CC[C@H](c2c(O)cc(O)c3c(=O)cc(/C=C/c4c(Cl)cccc4Cl)oc23)[C@H](O)C1
half-life (h): 3.23

* * *

Test: Growth inhibition of HGF after 48 hrs by MTT assay
Assay type: cell-based
Details: human, HGF cells
assayEndpoint: GI50 at 48 h (µM)

smilesRepr: CN1CC[C@H](c2c(O)cc(O)c3c(=O)cc(/C=C/c4c(Cl)cccc4Cl)oc23)[C@H](O)C1
measuredNumber: 18

* * *

Assay: Protein binding in dog plasma at 3 uM after 5 hrs by equilibrium dialysis method
Assay type: ADME, cell-free, Canis lupus familiaris
Details: read-out: PPB (converted)
assayEndpoint: fraction unbound at 5 h, 3 µM

smilesRepr: CN1CC[C@H](c2c(O)cc(O)c3c(=O)cc(/C=C/c4c(Cl)cccc4Cl)oc23)[C@H](O)C1
assayEndpoint: fraction unbound at 5 h, 3 µM
measuredNumber: 0.05

* * *

Test: Tmax in Sprague-Dawley rat at 10 mg/kg, po by LC-MS/MS analysis
Assay type: ADME, organism-based
Conditions: in vivo

smilesRepr: CN1CC[C@H](c2c(O)cc(O)c3c(=O)cc(/C=C/c4c(Cl)cccc4Cl)oc23)[C@H](O)C1
Tmax [h]: 1.75

* * *

Test: Chemical stability of compound in phosphate buffered saline at pH 7.4 assessed as parent compound remaining at 120 ug/ml after 24 hrs by HPLC method
Assay type: physicochemical
Conditions: read-out: Stability
assayEndpoint: remaining at 24 h, 120 ug/ml (%)

smilesRepr: CN1CC[C@H](c2c(O)cc(O)c3c(=O)cc(/C=C/c4c(Cl)cccc4Cl)oc23)[C@H](O)C1
assayEndpoint: remaining at 24 h, 120 ug/ml
measuredNumber: 100

* * *

Assay: Half life in human hepatocytes at 3 uM after 180 mins by LC-MS/MS analysis
Assay type: ADME, cell-based, Hepatocyte

smilesRepr: CN1CC[C@H](c2c(O)cc(O)c3c(=O)cc(/C=C/c4c(Cl)cccc4Cl)oc23)[C@H](O)C1
unitTag: h
half-life at 3 µM: 12.1

These measurements were taken from ChEMBL document CHEMBL4043283.
